assay: NCI Yeast Anticancer Drug Screen. Data for the cln2 rad14 strain (AID 165);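 also: 0% = growth equal to vehicle treated cultures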; conditions: S. cerevisiae cln2 rad14 strain, at 50.0 µM, hits give high values
The panel holds about 79,000 compounds, 15% with a hit somewhere; the sample as a whole holds those more often.
Recorded growth inhibition, one value per entry.
Numbers only here, please. The scale is %.

Solved entries (count: 5):
INSERT INTO assay_data (molecule, test_readout, value_reported) VALUES
  ('C/C(=N/O)c1ccc(O)cc1O', 'growth inhibition', -8.6),
  ('COC(=O)C(C)c1cccc2ccc3ccccc3c12 (stereo unspecified)', 'growth inhibition', 9.55),
  ('O=C(O)CCCCCNC(=O)c1ccccc1', 'growth inhibition', 6.4),
  ('CC1=CC(=O)CC2(C)CCC(C(C)CC(=O)CC(C)C)CC12 (stereo unspecified)', 'growth inhibition', 91.3),
  ('Cc1ccc(C(=O)CC2=NC3NN(c4ccccc4)C(=O)C3=C2CC(=O)c2ccc(C)cc2)cc1 (stereo unspecified)', 'growth inhibition', -13.1);

Now, please, on to the next molecule.
Asked: Give the measured growth inhibition for NC(=S)N/N=C(\c1ccccc1)c1cccc2ccccc12
Given back: -35.3

----------
assay: NCI Yeast Anticancer Drug Screen. Data for the rad50 strain (AID 155);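 also: 0% = growth of vehicle-only cultures of the same strain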; conditions: S. cerevisiae rad50 strain growth inhibition; at 50.0 µM
About 79,000 compounds went through this panel and 15% of them were active in at least one assay; those are over-represented in the sample as a whole. Active and inactive are the calls of the source. Rule as the data show it: active = growth inhibition above about 70%; inactive = the rest.
Pick one and only one: YES for active, NO for inactive

INSERT INTO results (molecule, class_assignment) VALUES
  ('CCCCCC/C=C/C(N)=O', 'NO'),
  ('CCOC(=O)c1c(NCc2ccccc2)n(-c2ccccc2)c(=S)n(-c2ccccc2)c1=O', 'NO'),
  ('NC(=O)C1(C(N)=O)CC1', 'NO'),
  ('COc1cc(OC)c2nccc(NCCCN(C)C)c2c1[N+](=O)[O-]', 'NO'),
  ('COc1cccc(C(=O)C(O)c2cccc(OC)c2OC)c1OC (stereo not drawn)', 'NO'),
  ('CC(C)(C)C1CCC2c3c([nH]c4ccccc34)C3C(=O)N(c4ccc(Cl)cc4)C(=O)C3C2C1 (stereo not drawn)', 'NO'),
  ('O=C(O)CCc1c[nH]c2ccccc12', 'NO'),
  ('O=C(O)/C=C/Sc1ccc(Cl)cc1', 'YES');

Asked: What did the test return for CCCCSc1nc2c(=O)n(C)c(=O)n(C)c2n1C ?
Given back: NO

Asked: What was the test verdict on COC(C)(C)C/C=C/C(C)=C/C=C/C(C)=C\C=C\C(C)=C\C=C\C=C(C)\C=C\C=C(C)\C=C\C=C(C)\C=C\CC(C)(C)OC ?
Given back: NO

Asked: State the result this test recorded for CCOC(=O)c1nnsc1NC(=O)Nc1ccc(Cl)cc1 .
Given back: NO

Asked: Look up the recorded call for COCOc1c(OC)c(C2(O)C(=O)N(C)c3ccccc32)c(OCOC)c(OC)c1C1(O)C(=O)N(C)c2ccccc21 (stereo not drawn) in this test.
Given back: NO

Asked: Any idea what this test logged for COc1ccccc1C(O)(c1ccccc1OC)C1(O)CCN(C)CC1 ?
Given back: NO

Asked: Would you mind telling me which call this test gave O=S(=O)(O)CCCO ?
Given back: NO

Asked: Identify the outcome logged in this assay for the molecule shown: NC(=O)C(CCCCNc1c(C(=O)O)cc([N+](=O)[O-])cc1[N+](=O)[O-])NC(=O)c1ccccc1 (stereo not drawn)
Given back: NO

Asked: Could you kindly confirm the outcome this assay logged for Clc1ccc(C(Cl)(c2ccc(Cl)cc2)C(Cl)(Cl)Cl)cc1 ?
Given back: NO

Asked: Identify the outcome logged in this assay for the molecule shown: CS(=O)(=O)OCC(=O)NCCCCNC(=O)COS(C)(=O)=O
Given back: NO

Asked: Please share the test call associated with O=C1/C(=C/c2ccc3c(c2)CCC3)Cc2cc3c(cc21)CCC3 .
Given back: NO
